# system: T1, cyno CD123 ECD displayed on pDisplay-transfected cells (cynomolgus monkey)
# T1 construct: ECD anchored on the surface of stably transfected HEK293 cells; also called cynoCD123 SP1 cells; cynoCD123 cells
# T1 chain: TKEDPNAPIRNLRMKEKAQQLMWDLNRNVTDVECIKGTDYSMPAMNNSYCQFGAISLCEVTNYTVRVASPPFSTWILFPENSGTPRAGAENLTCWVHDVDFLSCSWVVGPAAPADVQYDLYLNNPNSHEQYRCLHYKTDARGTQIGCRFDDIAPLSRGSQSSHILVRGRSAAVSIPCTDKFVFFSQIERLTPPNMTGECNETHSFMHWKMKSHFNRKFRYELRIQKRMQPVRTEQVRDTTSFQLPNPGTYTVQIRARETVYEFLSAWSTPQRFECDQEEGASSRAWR
# method_notes: MSD cell binding on 293F pDisplay cells; fold change over background; parental 293F cells as control
endpoint: binding result

I3RB37 (antibody, IgG1, V domains shown, IgG1) VH: QVQLVQSGAEVKKPGSSVKVSCKASGGTFSSYAISWVRQAPGQGLEWMGGIIPIFGTANYAQKFQGRVTITADESTSTAYMELSSLRSEDTAVYYCARDKTDFPSRLDYWGQGTLVTVSS VL: DIQMTQSPSSLSASVGDRVTITCRASQSIATWLNWYQQKPGKAPKLLIYAASSLQSGVPSRFSGSGSGTDFTLTISSLQPEDFATYYCQQYITFPLTFGQGTKVEIK | binds
I3RB34 (antibody, IgG1, V domains shown, IgG1; also called 13RB34) VH: QVQLVQSGAEVKKPGSSVKVSCKASGGTFSSYAISWVRQAPGQGLEWMGGIIPIFGTANYAQKFQGRVTITADESTSTAYMELSSLRSEDTAVYYCARGWSYYRLDYWGQGTLVTVSS VL: EIVLTQSPATLSLSPGERATLSCRASQSVDKWLAWYQQKPGQAPRLLIYYASNRATGIPARFSGSGSGTDFTLTISSLEPEDFAVYYCQQFDRAPFTFGQGTKVEIK | binds
